# protocol: Antiproliferative activity against FGF19 amplified human JHH7 cells assessed as inhibition of cell growth by SRB assay
pIC50: −log10 of the molar value.
assayMetric: pIC50

• C=CC(=O)N[C@H]1CCOC[C@H]1Nc1ncc2cc(-c3c(Cl)c(OC)cc(OC)c3Cl)ccc2n1 [FISOGATINIB] = 6.79
• C=CC(=O)Nc1ccccc1Nc1cc2c(C)nc(-c3c(Cl)c(OC)cc(OC)c3Cl)cc2cn1 = 7.48

====

# protocol: Half-life in ICR mouse at 100 mg/kg, po measured after 24 hrs by LC-MS/MS analysis
# Format: ADME, organism-based
# measurementParameters: in vivo
assayMetric: half-life (h)

- C=CC(=O)Nc1ccccc1Nc1cc2c(C)nc(-c3c(Cl)c(OC)cc(OC)c3Cl)cc2cn1: 3.9

====

Assay system Fibroblast growth factor receptor 2 (Homo sapiens); read-out recorded as IC50.
assayMetric: IC50 (µM)

- C=CC(=O)N[C@H]1CCOC[C@H]1Nc1ncc2cc(-c3c(Cl)c(OC)cc(OC)c3Cl)ccc2n1: 2.5
- C=CC(=O)Nc1ccccc1Nc1cc2c(C)nc(-c3c(Cl)c(OC)cc(OC)c3Cl)cc2cn1: 3.27

====

# protocol: Half-life in ICR mouse at 50 mg/kg, po measured after 24 hrs by LC-MS/MS analysis
# Assay type: ADME, organism-based
# measurementParameters: in vivo
assayMetric: half-life (h)

* C=CC(=O)Nc1ccccc1Nc1cc2c(C)nc(-c3c(Cl)c(OC)cc(OC)c3Cl)cc2cn1 | 4.4

====

# protocol: Oral bioavailability in ICR mouse at 100 mg/kg measured after 24 hrs by LC-MS/MS analysis
# Assay type: ADME, organism-based
# measurementParameters: in vivo
assayMetric: bioavailability (%)

- C=CC(=O)Nc1ccccc1Nc1cc2c(C)nc(-c3c(Cl)c(OC)cc(OC)c3Cl)cc2cn1: 61.9

====

# protocol: Half-life in ICR mouse at 200 mg/kg, po measured after 48 hrs by LC-MS/MS analysis
# Type: ADME, organism-based
# measurementParameters: in vivo
assayMetric: half-life (h)

• C=CC(=O)Nc1ccccc1Nc1cc2c(C)nc(-c3c(Cl)c(OC)cc(OC)c3Cl)cc2cn1 = 8.6

====

# protocol: Tmax in ICR mouse at 100 mg/kg, po measured after 24 hrs by LC-MS/MS analysis
# Format: ADME, organism-based
# measurementParameters: in vivo
assayMetric: Tmax

* C=CC(=O)Nc1ccccc1Nc1cc2c(C)nc(-c3c(Cl)c(OC)cc(OC)c3Cl)cc2cn1 | 30 min

====

# Test system: Hep 3B2
# protocol: Antiproliferative activity against FGF19 amplified human Hep3B cells assessed as inhibition of cell growth by SRB assay
pIC50: −log10 of the molar value.
assayMetric: pIC50

* C=CC(=O)Nc1ccccc1Nc1cc2c(C)nc(-c3c(Cl)c(OC)cc(OC)c3Cl)cc2cn1 | 7.80
* C=CC(=O)N[C@H]1CCOC[C@H]1Nc1ncc2cc(-c3c(Cl)c(OC)cc(OC)c3Cl)ccc2n1 [FISOGATINIB] | 6.91

====

# protocol: AUC (0 to 24 hrs) in ICR mouse at 100 mg/kg, po measured after 24 hrs by LC-MS/MS analysis
# Type: ADME, organism-based
# measurementParameters: in vivo
assayMetric: AUC(0-t) at 24 h (ng·h/mL)

• C=CC(=O)Nc1ccccc1Nc1cc2c(C)nc(-c3c(Cl)c(OC)cc(OC)c3Cl)cc2cn1 = 59500
